test system: MDA-MB-231 multicell spheroids, viability (%T/C); assay: Anticancer human tumor MDA-MB-231 cell line growth inhibition [IpAb]; conditions: second compound 10 µM; first compound 10 µM; stronger effect = lower value;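 note: viability read after seven days of drug exposure; 100% = DMSO vehicle control viability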
Flag rule - viability, T/C less than 30% flags class 1; the remaining entries get class 0.

Example results:
[[record]]
molecule = "Cn1ncc(Cl)c1-c1cc(C(=O)NC(CN)Cc2cccc(F)c2)sc1Cl (configuration not stated) + CC(C)NCC(C(=O)N1CCN(c2ncnc3c2C(C)CC3O)CC1)c1ccc(Cl)cc1"
measurement_target = "MDA-MB-231 multicell spheroids, viability (%T/C)"
label_value = "class 1"

[[record]]
molecule = "C=CC(=O)N1CCN(c2nc(=O)n(-c3c(C)ccnc3C(C)C)c3nc(-c4c(O)cccc4F)c(F)cc23)C(C)C1 (configuration not stated) + CC(C)NCC(C(=O)N1CCN(c2ncnc3c2C(C)CC3O)CC1)c1ccc(Cl)cc1"
measurement_target = "MDA-MB-231 multicell spheroids, viability (%T/C)"
label_value = "class 0"

[[record]]
molecule = "CC1(C)CCC(CN2CCN(c3ccc(C(=O)NS(=O)(=O)c4ccc(NCC5CCOCC5)c([N+](=O)[O-])c4)c(Oc4cnc5[nH]ccc5c4)c3)CC2)=C(c2ccc(Cl)cc2)C1 + CC(C)NCC(C(=O)N1CCN(c2ncnc3c2C(C)CC3O)CC1)c1ccc(Cl)cc1"
measurement_target = "MDA-MB-231 multicell spheroids, viability (%T/C)"
label_value = "class 1"

[[record]]
molecule = "Cc1nc(NC(=O)N2CCCC2C(N)=O)sc1-c1ccnc(C(C)(C)C(F)(F)F)c1 (configuration not stated) + CC(C)NCC(C(=O)N1CCN(c2ncnc3c2C(C)CC3O)CC1)c1ccc(Cl)cc1"
measurement_target = "MDA-MB-231 multicell spheroids, viability (%T/C)"
label_value = "class 0"

[[record]]
molecule = "Cn1nccc1Nc1nccc(-c2ccn(C(CO)c3ccc(Cl)c(F)c3)c(=O)c2)n1 (configuration not stated) + CC(C)NCC(C(=O)N1CCN(c2ncnc3c2C(C)CC3O)CC1)c1ccc(Cl)cc1"
measurement_target = "MDA-MB-231 multicell spheroids, viability (%T/C)"
label_value = "class 1"

[[record]]
molecule = "CCCS(=O)(=O)Nc1ccc(F)c(C(=O)c2c[nH]c3ncc(-c4ccc(Cl)cc4)cc23)c1F + CC(C)NCC(C(=O)N1CCN(c2ncnc3c2C(C)CC3O)CC1)c1ccc(Cl)cc1"
measurement_target = "MDA-MB-231 multicell spheroids, viability (%T/C)"
label_value = "class 1"


From here, focus on the item given below.
Please let me know if C=CCn1c(=O)c2cnc(Nc3ccc(N4CCN(C)CC4)cc3)nc2n1-c1cccc(C(C)(C)O)n1 + CC(C)NCC(C(=O)N1CCN(c2ncnc3c2C(C)CC3O)CC1)c1ccc(Cl)cc1 shows viability, T/C below 30%.
class 1
